- SYSTEM: T1, CD73 on the surface of human cells (human, UniProt P21589 27-549)
- T1 construct: whole, on cells; The cell line of each value is named under assay or readout; also called CD73 on the surface of tumor cells; CD73 enzyme on the surface of MDA-MB-231 cells
- T1 sequence (looked up): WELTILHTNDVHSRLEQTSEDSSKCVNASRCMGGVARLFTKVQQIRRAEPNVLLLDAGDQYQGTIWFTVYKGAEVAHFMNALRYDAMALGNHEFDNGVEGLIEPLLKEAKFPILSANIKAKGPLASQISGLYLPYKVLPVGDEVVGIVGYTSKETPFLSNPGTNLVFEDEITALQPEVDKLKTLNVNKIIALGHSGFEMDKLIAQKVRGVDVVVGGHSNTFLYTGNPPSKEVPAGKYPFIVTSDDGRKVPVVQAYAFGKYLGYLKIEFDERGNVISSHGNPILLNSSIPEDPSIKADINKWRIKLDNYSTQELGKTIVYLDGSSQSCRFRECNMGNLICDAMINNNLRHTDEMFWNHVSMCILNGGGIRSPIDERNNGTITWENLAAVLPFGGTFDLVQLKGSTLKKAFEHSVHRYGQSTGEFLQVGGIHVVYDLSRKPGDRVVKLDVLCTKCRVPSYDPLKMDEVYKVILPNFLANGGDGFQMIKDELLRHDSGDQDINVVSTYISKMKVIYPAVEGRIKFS
- PROTOCOL NOTES: Flow cytometry on NCI-H1373 cells, PE-labelled secondary antibody [panel B]
READOUT LABEL: Max MFI (MFI)
// units = MFI; emit number, no label

chimeric nanobody 3-D7 (Fc fusion, Human-alpaca chimeric antibody (VHH on hIgG1 Fc); Only the VHH is tied to the tested molecule; 37-39 exist for 3-D7-FC1/FC2/FC3; also called original antibody 3-D7) VHH: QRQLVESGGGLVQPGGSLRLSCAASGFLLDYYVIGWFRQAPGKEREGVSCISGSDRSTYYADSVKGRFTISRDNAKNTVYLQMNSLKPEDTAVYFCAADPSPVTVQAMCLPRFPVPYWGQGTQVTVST	200000

Sample chimeric nanobody 5-E11 (Fc fusion, Human-alpaca chimeric antibody (VHH on hIgG1 Fc); Only the VHH is tied to the tested molecule; also called original antibody 5-E11) VHH: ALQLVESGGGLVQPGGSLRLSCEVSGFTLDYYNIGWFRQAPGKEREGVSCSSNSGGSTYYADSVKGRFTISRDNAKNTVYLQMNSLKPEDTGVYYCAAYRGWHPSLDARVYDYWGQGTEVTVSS ; Max MFI observed: 191000

Input chimeric nanobody 4-D04 (Fc fusion, Human-alpaca chimeric antibody) VHH: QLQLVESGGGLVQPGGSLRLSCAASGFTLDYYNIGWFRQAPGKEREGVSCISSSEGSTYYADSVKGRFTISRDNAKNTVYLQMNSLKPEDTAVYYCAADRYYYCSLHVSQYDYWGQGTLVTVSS . Output Max MFI: 220000

The recorded Max MFI for entry chimeric nanobody 4-B02 (Fc fusion, Human-alpaca chimeric antibody) VHH: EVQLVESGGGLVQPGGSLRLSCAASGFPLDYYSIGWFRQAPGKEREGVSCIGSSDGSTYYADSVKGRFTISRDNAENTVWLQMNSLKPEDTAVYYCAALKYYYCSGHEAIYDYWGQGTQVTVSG equals 206000
